The measured values listed here are drawn from patent US8367687B2.

- Target: CDK4 (Homo sapiens)
- Sequence (P11802 whole entry): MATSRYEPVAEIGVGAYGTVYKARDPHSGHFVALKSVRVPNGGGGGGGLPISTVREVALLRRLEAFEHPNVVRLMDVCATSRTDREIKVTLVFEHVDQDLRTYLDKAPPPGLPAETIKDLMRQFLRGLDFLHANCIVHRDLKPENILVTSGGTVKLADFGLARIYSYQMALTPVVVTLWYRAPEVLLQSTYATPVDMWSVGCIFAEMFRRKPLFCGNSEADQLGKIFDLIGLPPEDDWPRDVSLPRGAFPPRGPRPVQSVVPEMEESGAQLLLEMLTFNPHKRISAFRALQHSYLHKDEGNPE
- Sequence (P24385 whole entry partner): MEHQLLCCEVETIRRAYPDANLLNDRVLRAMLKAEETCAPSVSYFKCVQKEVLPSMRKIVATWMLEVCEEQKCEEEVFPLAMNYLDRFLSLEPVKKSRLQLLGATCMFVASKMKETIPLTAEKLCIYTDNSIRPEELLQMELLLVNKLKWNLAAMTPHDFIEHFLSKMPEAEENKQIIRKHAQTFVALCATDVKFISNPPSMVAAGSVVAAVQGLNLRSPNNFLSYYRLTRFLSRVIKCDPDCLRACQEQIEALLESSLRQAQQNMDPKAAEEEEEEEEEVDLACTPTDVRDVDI
- Experimental Details: CDK4 HTRF
- Type: biochemical
- Particulars: Table 2; read-out: CDK4 HTRF/ IC50
IC50 for assorted molecules

Reference set, count: 2
CC(C)c1n[nH]cc1-c1ccnc(NC2CCNCC2)n1    < 0.05 µM
Cc1n[nH]cc1-c1ccnc(NCCCO)n1    < 5 µM

Simply: CC(C)c1n[nH]cc1-c1ccnc(NC2CCc3cc(Cl)ccc32)n1 (stereo not shown) , CDK4 (Homo sapiens), IC50 = < 0.5 µM

The measured IC50 that Cc1n[nH]cc1-c1ccnc(NCc2ccccc2)n1 showed for CDK4 (Homo sapiens) is < 5 µM

Measured on CDK4 (Homo sapiens), Cc1n[nH]cc1-c1ccnc(NCC2CCCCC2)n1 has a documented IC50 of < 5 µM

Log: CDK4 (Homo sapiens), molecule CC(C)c1n[nH]cc1-c1ccnc(NC(C)c2ccccc2)n1 (stereo not shown) , IC50 = < 0.05 µM

Value sought: IC50, system CDK4 (Homo sapiens), item CC(C)c1n[nH]cc1-c1ccnc(NCCCN(C)c2ccccc2)n1 . Result: < 5 µM

Field IC50 (CDK4 (Homo sapiens)), entry Cc1n[nH]cc1-c1ccnc(NCCN2CCCC2)n1 : < 10 µM

Form: item Cc1n[nH]cc1-c1ccnc(NC2CCc3ccccc32)n1 (stereo not shown) ; test system CDK4 (Homo sapiens); IC50: < 0.5 µM

Assay CDK4 (Homo sapiens), sample CC(C)c1n[nH]cc1-c1ccnc(N[C@H]2CCc3ccccc32)n1 , IC50 read: < 1 µM

Lab note: molecule CC(C)c1n[nH]cc1-c1ccnc(NC2CCN(Cc3ccccc3)CC2)n1 tested on CDK4 (Homo sapiens); recorded IC50 was < 0.05 µM

The measured IC50 that CC(C)c1n[nH]cc1-c1ccnc(NCCN(C(C)C)C(C)C)n1 showed for CDK4 (Homo sapiens) is < 5 µM

Observed IC50, CDK4 (Homo sapiens), CC(C)c1n[nH]cc1-c1ccnc(NC2CCC(C)(C)c3ccccc32)n1 (stereo not shown) : < 0.1 µM

IC50 of Cc1n[nH]cc1-c1ccnc(NCCC2CCCN2C)n1 (stereo not shown) , assay on CDK4 (Homo sapiens), is < 10 µM

Query CC(C)c1n[nH]cc1-c1ccnc(NCc2ccccc2Cl)n1 on CDK4 (Homo sapiens); IC50 returned: < 5 µM

Value sought: IC50, system CDK4 (Homo sapiens), item Cc1ccccc1CNc1nccc(-c2c[nH]nc2C(C)C)n1 . Result: < 0.5 µM

Short answer on CDK4 (Homo sapiens) for CC(C)c1n[nH]cc1-c1ccnc(NCCCN(C)C)n1 , IC50: < 1 µM
